Provide the reported growth of each item.
- Test system: NCI-H23 lung
- experiment: NCI-60 one-dose screen, 48 h (100 = growth as untreated, 0 = no growth, -100 = all killed)
- condition.context: 10 µM
- Experimental: Growth inhibition of the NCI-H23 human Non-Small Cell Lung tumor cell line is measured as a screen for anti-cancer activity. Cells are grown in 96 well plates and exposed to the test compound for 48 hours. Compounds are tested at a single concentration, which is 10^-5 M for most compounds. The reported endpoint is percent growth (GI% or GIPRCNT), where numbers from 0 - 100% represent growth inhibition, and numbers from -100% - 0 represent cell death. […]
The panel holds about 83,000 compounds, 20% with a hit somewhere; the sample as a whole holds those more often.
Numbers only, in %.

Below, each entry is followed by its recorded growth result.
1. COc1ccccc1N=Nc1c(O)ccc2cc(S(=O)(=O)O)ccc12 :: 86.8
2. Nc1ccc(N)c([N+](=O)[O-])c1 :: 103
3. CC1(c2ccccc2)NC(=O)NC1=O (centres undefined) :: 116

For each listed entry, give its growth.
1. O=C(O)C(O)c1ccccc1 (centres undefined)
2. COC(=O)/C=C\C(=O)OC
3. CCc1nn(Cc2ccccc2)c2nc(C)c(CCc3ccccc3)c(Cl)c12
4. O=S(=O)(O)c1ccc(Cl)c(Cl)c1
5. S=C(Nc1ccccc1)N1CCCCC1

result:
1: 101; 2: 106; 3: 101; 4: 101; 5: 99.9

Can you give me growth for all of these, one by one?
1. Nc1ccc(NC(=O)c2cccc(N)c2)cc1
2. CCNCCCCNCCCCNCCCCNCCCCNCC
3. C=CC(=O)OCCCCCCCC
4. OCC(O)C(O)C(O)C(O)/C=N/O (centres undefined)
5. CCOC(=O)c1cc(/C=C/c2ccc(Cl)cc2Cl)on1
6. O=C1C=C(Nc2ccc([N+](=O)[O-])cc2)c2ccccc2C1=O

result:
1: 96.7; 2: 49.5; 3: 105; 4: 101; 5: 47.4; 6: 30.1

* * *

- System: RXF 393 renal
- experiment: NCI-60 one-dose screen, 48 h
- condition.context: 10 µM
The panel holds about 83,000 compounds, 20% with a hit somewhere; the sample as a whole holds those more often. The source made the active and inactive calls. The calls were made as follows: active = growth percent below 10; inactive = the rest.
Reply using exactly one outcome from 1 (yes) for active, 0 (no) for inactive

These solved cases illustrate the format of a correct answer.
1) Oc1ccc(N=Nc2ccc(Br)cc2)c(O)c1 :: 1 (yes)
2) CC(=O)OCC1CCCO1 (centres undefined) :: 0 (no)
3) CC1=NN(c2ccccc2)C(=O)/C1=C\N1CC(=O)NC1=S :: 0 (no)

query: Which outcome was entered for the compound O=C(CCl)N1CCN(C/C=C/c2ccccc2)CC1 in this test?
result: 0 (no)

query: Any idea what this test logged for CC1(C)S(=O)(=O)OCCOS1(=O)=O ?
result: 0 (no)

query: I would be grateful if you could indicate the recorded call for CC(=O)Cc1ccc(-c2ccccc2)cc1 .
result: 0 (no)

query: What did the test return for CC(=O)c1ccc(C)c(N)c1 ?
result: 0 (no)

query: Dear all, I need the recorded test outcome for c1ccc(/C(=N\N=C(/c2ccccc2)c2cccs2)c2cccs2)cc1 , thank you.
result: 0 (no)

query: For this compound, state the assay outcome: COc1ccc(OC)c(/C=C2\CCc3ccccc3C2=O)c1
result: 0 (no)

query: Please state the recorded outcome for this compound: COS(=O)(=O)c1ccc(Br)cc1
result: 0 (no)

query: Give the logged outcome of this assay for the following compound: O=C1C=C(O)C(=O)C=C1O
result: 0 (no)

query: Per the assay record, what outcome was assigned to O=C(O)CCCc1ccccc1 ?
result: 0 (no)

query: How was CC(C)C(C#N)(C(C)C)C(C)C classified in this test?
result: 0 (no)

query: Please indicate how the test categorized C#CCSc1nnnn1-c1ccc(Br)c(C)c1 .
result: 0 (no)

* * *

- System: SK-OV-3 ovarian
- experiment: NCI-60 one-dose screen, 48 h (100 = growth as untreated, 0 = no growth, -100 = all killed)
- condition.context: 10 µM
This is part of a sample that, as a whole, favours compounds with a hit. Of some 83,000 tested, about 20% had one in any assay.
recorded.endpoint: growth (%)
One number for each entry, in %.

Please supply growth for each of the following items, keeping them in order.
1. NCCCN
2. COc1ccc(/C=C/c2cccc[n+]2C)cc1
3. CCN(CC)c1ccc2nc3ccc(=[N+](CC)CC)cc-3oc2c1
4. C=CCNc1ccccc1

result:
[105, 78.8, -9.43, 101]

For every listed record, write down its growth.
1. CC(=O)c1ccc(C(C)(C)C)cc1
2. FC(F)(F)c1ccc2c(c1)N(CCCN1CCN(C3CC3)CC1)c1ccccc1S2
3. CC(=O)c1ccc(C)c(N)c1
4. O=C(O)c1cccc([N+](=O)[O-])c1
5. OCCN(CCO)C(=S)S
6. CCCCN(CCCC)CCCO

result:
1: 101; 2: 83.9; 3: 98.6; 4: 113; 5: 127; 6: 110

Please report growth for every entry that follows.
1. CC1(C)OC(=O)C(c2ccsc2)C(=O)O1
2. CCOC(=O)c1cc(/C=C/c2ccc(Cl)cc2Cl)on1
3. CC(=O)OCC1OC(OC2=C(CC=C(C)C)C(=O)c3ccccc3C2=O)C(OC(C)=O)C(OC(C)=O)C1OC(C)=O (stereo not drawn)

result:
1: 106; 2: 104; 3: 84.4

* * *

- Tested on: PC-3 prostate
- experiment: NCI-60 one-dose screen, 48 h (100 = growth as untreated, 0 = no growth, -100 = all killed)
- condition.context: 10 µM
This is part of a sample that, as a whole, favours compounds with a hit. Of some 83,000 tested, about 20% had one in any assay.
recorded.endpoint: growth (%)
One number for each entry, in %.

Illustrative cases are given below, each with its answer.
1. CCCCCC(C)(CC(=O)O)CC(=O)O :: 99.6
2. CCOC(=O)C1OC1c1ccccc1 (stereo not drawn) :: 98.8
3. CC[N+](C)(CC)CCO :: 102
4. CC(O)COc1ccc(-c2ccccc2)cc1 (stereo not drawn) :: 101
5. CCC(C)(C)C1CCC(O)CC1 (stereo not drawn) :: 99.2

// for each compound below, give its growth
1. CC1CC(O)CC(C)(C)C1 (stereo not drawn)
2. CC1Cc2ccccc2O1 (stereo not drawn)
3. O=C(CN1CCNCC1)N1CCOCC1

result:
1: 94.8; 2: 106; 3: 100

* * *

Assign growth to each entry below.
- System: UACC-62 melanoma
- experiment: NCI-60 one-dose screen, 48 h (100 = growth as untreated, 0 = no growth, -100 = all killed)
- condition.context: 10 µM unless noted
About 83,000 compounds went through this panel and 20% of them were active in at least one assay; those are over-represented in the sample as a whole.
Give bare numbers, in %.

// below: answered compounds
1) COC(=O)c1cc(-c2ccc(Cl)c(Cl)c2)[nH]c(=O)c1C#N :: 90.9
2) S=C1CCCCCN1 :: 100
3) O=[N+]([O-])c1ccccc1N=Nc1ccc(O)cc1O :: 124
4) CCOC(=O)C1=C(C)NC(=O)NC1c1cccs1 (stereo not given) :: 115
5) CCC/C=C(/C(C)=O)C(=O)OCC :: 95.1

Need growth for each of these compounds.
1. O=C1C=CC(=O)N1c1ccc(I)cc1Cl
2. CNc1nc(NC)c2cn[nH]c2n1
3. CCOc1ccc(/C=N/N=C(N)N)cc1OCC
4. O=c1[nH]c(O)c(/C=C2/C=Nc3ccccc32)[nH]1
5. N#Cc1c(N)sc(=S)c2c1CCCC2
6. Nc1ccc(CC(=O)O)c(N)c1
7. CC1(C)N=C(N)N=C(N)N1c1ccc(Cl)cc1

result:
[104, 102, 93.1, 95.7, 114, 93.3, 41.4]

For each entry beneath this line, provide reported growth.
1. CC(C)CCCC(=O)O
2. NCCCN
3. CC(=O)Oc1ccc(Br)cc1C(=O)O

result:
1. 107
2. 109
3. 98.6

Parameter requested: growth. Apply to each item below.
1. C=CCc1cc(C(C)=O)cc(OC)c1O
2. C/C(=N/NC(N)=O)c1ccco1
3. N#CCc1ccc([N+](=O)[O-])cc1
4. c1ccc(Sc2ccccc2)cc1
5. CCOC(=O)CCCC(=O)OCC

result:
1: 97.8; 2: 102; 3: 92.8; 4: 101; 5: 102

* * *

Give measured growth for each item. Keep answers brief.
- System: HT29 colon
- experiment: NCI-60 one-dose screen, 48 h (100 = growth as untreated, 0 = no growth, -100 = all killed)
- condition.context: 10 µM
- Protocol: Growth inhibition of the HT29 human tumor cell line is measured as a screen for anti-cancer activity. Cells are grown in 96 well plates and exposed to the test compound for 48 hours. Compounds are tested at a single concentration, which is 10^-5 M for most compounds. The reported endpoint is percent growth (GI% or GIPRCNT), where numbers from 0 - 100% represent growth inhibition, and numbers from -100% - 0 represent cell death. For example, a value of 40 represents 60% growth inhibition. […]
This is part of a sample that, as a whole, favours compounds with a hit. Of some 83,000 tested, about 20% had one in any assay.
One number for each entry, in %.

Illustrative cases are given below, each with its answer.
1) Cc1cc(C)cc(NCCC#N)c1 :: 105
2) NCCC(=O)c1ccc(Cl)cc1 :: 106
3) O=C(/C=C/C(=O)c1ccccc1)c1ccccc1 :: 100
4) O=C1Cc2ccccc2C(=O)O1 :: 109
5) CCCCCCCCOC(=O)c1ccccn1 :: 96.2

// input: 4 compounds below; output: growth for each
1. CCCC(C)OCC(=O)O (stereo not given)
2. C#CCSc1nnnn1-c1ccc(Br)c(C)c1
3. COCCOC(=O)c1ccc(C(C)C)cc1
4. Nc1ccc(N=Nc2ccc(O)cc2)c(N)n1

result:
1. 109
2. 89.7
3. 91.9
4. 103

// each compound listed below needs its growth
1. CCOc1ccccc1/C=N/Nc1nc2ccccc2o1
2. c1ccc2c(N3CCCCC3)ncnc2c1

result:
[110, 76.2]

Need growth for each of these compounds.
1. C#CC(C(C)C)N(CCO)CCCC (stereo not given)
2. COc1cc(/C=C/C(=O)c2ccccc2)cc(OC)c1OC
3. CC(=O)OCCO
4. CC(=O)C1CCCCC1

result:
1: 117; 2: 19.1; 3: 120; 4: 104
